assay: in vivo; details: mouse, tumor, 5 mg/kg

COMPOUND: CC(C)NCCCn1c(Sc2cc3c(cc2I)OCO3)nc2c(N)ncnc21 [PU-H71]
concentration at 24 h: 370 nM

====

experiment: in vivo; settings: mouse, tumor, 25 mg/kg

CHEM SMILES: CC(C)NCCCn1c(Sc2cc3c(cc2I)OCO3)nc2c(N)ncnc21
concentration at 24 h [nM]: 1830

====

assay: in vivo; settings: mouse, tumor, 75 mg/kg

CHEM SMILES: CC(C)NCCCn1c(Sc2cc3c(cc2I)OCO3)nc2c(N)ncnc21
concentration at 96 h / nM: 1290

====

assay: in vivo; conditions: mouse, tumor, 50 mg/kg

COMPOUND: CC(C)NCCCn1c(Sc2cc3c(cc2I)OCO3)nc2c(N)ncnc21 [PU-H71]
concentration at 24 h / µM: 3.67
